# Tested on: JAK1-dependent STAT6 phosphorylation downstream of IL-13 stimulation in TF-1 human erythroleukemia cells
# assayDetails: cells
# runConditions: TF-1, read-out: IL-13-pSTAT6 IC50
quantityName: IC50 (nM)

1. CN1CCC(N(C)C(=O)c2ccc(Nc3nc4c(C5=CCN(C(=O)OCC#N)CC5)cccn4n3)cc2)CC1; 42.9
2. O=C(NCCC1CCCN1)c1ccc(Nc2nc3c(C4=CCN(C(=O)CCC(F)(F)F)CC4)cccn3n2)cc1 (stereo not shown); 145
3. CCOC(=O)N1CC=C(c2cccn3nc(Nc4ccc(C(=O)NCC5CC56CCNCC6)cc4)nc23)CC1 (stereo not shown); 438
4. CN(C)C(=O)C1CN(C(=O)c2ccc(Nc3nc4c(N5CCC(O)(c6ccc(Cl)cc6)CC5)cccn4n3)cc2)C1; 10.8
5. O=C(CCC(F)(F)F)N1CC=C(c2cccn3nc(Nc4ccc(C(=O)N5CCCC56CCNCC6)cc4)nc23)CC1; 238

[a] CCOC(=O)N1CC=C(c2cccn3nc(Nc4ccc(C(=O)NCc5cccnc5C)cc4)nc23)CC1
[b] O=C(c1ccc(Nc2nc3c(N4CCC(CO)(c5ccc(Cl)cc5)CC4)cccn3n2)cc1)N1CCC(c2ccncc2)C1 (stereo not shown)
Problem: Between the entries labelled a and b , which has a larger IC50 value on record? // return label of chosen record
Result: b

====

# targetOrSystem: isolated recombinant JAK2 kinase domain (Homo sapiens (Human))
# runConditions: read-out: JAK2 Ki; isolated recombinant JAK2 kinase domain, 25 μM ATP
pKi: −log10 of the molar value.
quantityName: pKi

Reference set (2 entries):
1. CN1CCC(N(C)C(=O)c2ccc(Nc3nc4c(N5CCC(C)(NS(=O)(=O)c6ccccc6)CC5)cccn4n3)cc2)CC1; 8.30
2. CC(=O)NC1(C)CCN(c2cccn3nc(Nc4ccc(C(=O)N(C)C5CCN(C)CC5)cc4)nc23)CC1; 7.79

[A] CCOC(=O)CC1(c2ccc(Cl)cc2)CCN(c2cccn3nc(Nc4ccc(C(=O)N(C)C5CCN(C)CC5)cc4)nc23)CC1
[B] COCCOc1cc(COC2CCN(c3cccn4nc(Nc5ccc(C(=O)N(C)C6CCN(C)CC6)cc5)nc34)CC2)ccn1
Problem: Between the entries labelled A and B , which has a larger pKi value on record? // return label of chosen record
Result: A
(A: 9.41, B: 8.15)

====

# targetOrSystem: isolated recombinant JAK2 kinase domain (Homo sapiens (Human), UniProt O60674)
# Sequence (O60674 849-1124): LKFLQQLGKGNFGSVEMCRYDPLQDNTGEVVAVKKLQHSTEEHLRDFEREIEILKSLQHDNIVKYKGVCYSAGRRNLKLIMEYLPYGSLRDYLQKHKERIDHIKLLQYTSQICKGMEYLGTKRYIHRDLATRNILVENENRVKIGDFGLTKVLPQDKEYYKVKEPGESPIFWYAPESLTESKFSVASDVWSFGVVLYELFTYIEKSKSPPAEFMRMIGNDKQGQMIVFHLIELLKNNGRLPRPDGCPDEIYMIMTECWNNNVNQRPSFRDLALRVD
# runConditions: read-out: JAK2 Ki; isolated recombinant JAK2 kinase domain, 25 μM ATP
Counter-ions that a name gives are not always drawn.
quantityName: Ki (nM)

Reference set (5 entries):
1. CN1CCC(N(C)C(=O)c2ccc(Nc3nc4c(N5CCC(O)(c6cccc(Cl)c6)CC5)cccn4n3)cc2)CC1; 17.3
2. O=C(c1ccc(Nc2nc3c(N4CCC(O)(c5ccc(Cl)cc5)CC4)cccn3n2)cc1)N1CCC(N2CCOCC2)CC1; 0.63
3. CC(C)N1CCC(CN(C)C(=O)c2ccc(Nc3nc4c(N5CCC(O)(c6ccc(Cl)cc6)CC5)cccn4n3)cc2)C1 (stereo not shown); 1.74
4. CN1CCC(N(C)C(=O)c2ccc(Nc3nc4c(N5CCC(O)(C6CCCCC6)CC5)cccn4n3)cc2)CC1; 14.2
5. CN1CCC(N(C)C(=O)c2ccc(Nc3nc4c(N5CCC=C(c6ccccc6)CC5)cccn4n3)cc2)CC1; 7.53

[1] O=C(NCCN1CCCCC1)c1ccc(Nc2nc3c(N4CCC(O)(c5ccc(Cl)cc5)CC4)cccn3n2)cc1
[2] COC1(c2ccccc2)CCN(c2cccn3nc(Nc4ccc(C(=O)N(C)C5CCN(C)CC5)cc4)nc23)CC1 [Example 1-5, hydrochloride]
Problem: Between the entries labelled 1 and 2 , which has a larger Ki value on record? // return label of chosen record
Result: 2
(2: 5.15 nM, 1: 2.45 nM)
